Give half-life for every item shown.
# procedure-text: Single and repeat dose plasma and tissue pharmacokinetics in male C57BL/6 mice
# Assay type: in vivo, mouse
# condition-info: male, C57BL/6; mouse plasma, 20 mg/kg/day PO, repeat dose QD × 4
Quick reminder: number only, in h, skip the unit.

Q. Entry under review: CC(C)(CCCCc1ccc(CCCCC(C)(C)C(=O)O)cc1)C(=O)O . Reported half-life?
A. 22

Q. Would you kindly repeat that for CC(C)(CCCCc1cccc(CCCCC(C)(C)C(=O)O)c1)C(=O)O ?
A. 9.2

* * *

# procedure-text: Single and repeat dose plasma and tissue pharmacokinetics in male C57BL/6 mice
# Assay type: in vivo, mouse
# condition-info: male, C57BL/6; mouse brain, 20 mg/kg PO, single dose QD × 1
parameter: half-life

Q. Entry under review: CC(C)(CCCCc1cccc(CCCCC(C)(C)C(=O)O)c1)C(=O)O [Compound I-32] . Reported half-life?
A. 3 h

* * *

Give half-life for every item shown.
# procedure-text: Single and repeat dose plasma and tissue pharmacokinetics in male C57BL/6 mice
# Format: in vivo, mouse
# condition-info: male, C57BL/6; mouse plasma, 20 mg/kg PO, single dose QD × 1

Q. Entry under review: CC(C)(CCCCc1ccc(CCCCC(C)(C)C(=O)O)cc1)C(=O)O . Reported half-life?
A. 918 min

Q. Would you kindly repeat that for CC(C)(CCCCc1cccc(CCCCC(C)(C)C(=O)O)c1)C(=O)O ?
A. 540 min

* * *

# target-entity: Human ACC2 (Homo sapiens, UniProt O00763)
# Construct: FLAG (C); His (C); purchased BPS Biosciences 50201; host or cells: Baculovirus infected Sf9 cells
# Sequence (O00763 whole entry): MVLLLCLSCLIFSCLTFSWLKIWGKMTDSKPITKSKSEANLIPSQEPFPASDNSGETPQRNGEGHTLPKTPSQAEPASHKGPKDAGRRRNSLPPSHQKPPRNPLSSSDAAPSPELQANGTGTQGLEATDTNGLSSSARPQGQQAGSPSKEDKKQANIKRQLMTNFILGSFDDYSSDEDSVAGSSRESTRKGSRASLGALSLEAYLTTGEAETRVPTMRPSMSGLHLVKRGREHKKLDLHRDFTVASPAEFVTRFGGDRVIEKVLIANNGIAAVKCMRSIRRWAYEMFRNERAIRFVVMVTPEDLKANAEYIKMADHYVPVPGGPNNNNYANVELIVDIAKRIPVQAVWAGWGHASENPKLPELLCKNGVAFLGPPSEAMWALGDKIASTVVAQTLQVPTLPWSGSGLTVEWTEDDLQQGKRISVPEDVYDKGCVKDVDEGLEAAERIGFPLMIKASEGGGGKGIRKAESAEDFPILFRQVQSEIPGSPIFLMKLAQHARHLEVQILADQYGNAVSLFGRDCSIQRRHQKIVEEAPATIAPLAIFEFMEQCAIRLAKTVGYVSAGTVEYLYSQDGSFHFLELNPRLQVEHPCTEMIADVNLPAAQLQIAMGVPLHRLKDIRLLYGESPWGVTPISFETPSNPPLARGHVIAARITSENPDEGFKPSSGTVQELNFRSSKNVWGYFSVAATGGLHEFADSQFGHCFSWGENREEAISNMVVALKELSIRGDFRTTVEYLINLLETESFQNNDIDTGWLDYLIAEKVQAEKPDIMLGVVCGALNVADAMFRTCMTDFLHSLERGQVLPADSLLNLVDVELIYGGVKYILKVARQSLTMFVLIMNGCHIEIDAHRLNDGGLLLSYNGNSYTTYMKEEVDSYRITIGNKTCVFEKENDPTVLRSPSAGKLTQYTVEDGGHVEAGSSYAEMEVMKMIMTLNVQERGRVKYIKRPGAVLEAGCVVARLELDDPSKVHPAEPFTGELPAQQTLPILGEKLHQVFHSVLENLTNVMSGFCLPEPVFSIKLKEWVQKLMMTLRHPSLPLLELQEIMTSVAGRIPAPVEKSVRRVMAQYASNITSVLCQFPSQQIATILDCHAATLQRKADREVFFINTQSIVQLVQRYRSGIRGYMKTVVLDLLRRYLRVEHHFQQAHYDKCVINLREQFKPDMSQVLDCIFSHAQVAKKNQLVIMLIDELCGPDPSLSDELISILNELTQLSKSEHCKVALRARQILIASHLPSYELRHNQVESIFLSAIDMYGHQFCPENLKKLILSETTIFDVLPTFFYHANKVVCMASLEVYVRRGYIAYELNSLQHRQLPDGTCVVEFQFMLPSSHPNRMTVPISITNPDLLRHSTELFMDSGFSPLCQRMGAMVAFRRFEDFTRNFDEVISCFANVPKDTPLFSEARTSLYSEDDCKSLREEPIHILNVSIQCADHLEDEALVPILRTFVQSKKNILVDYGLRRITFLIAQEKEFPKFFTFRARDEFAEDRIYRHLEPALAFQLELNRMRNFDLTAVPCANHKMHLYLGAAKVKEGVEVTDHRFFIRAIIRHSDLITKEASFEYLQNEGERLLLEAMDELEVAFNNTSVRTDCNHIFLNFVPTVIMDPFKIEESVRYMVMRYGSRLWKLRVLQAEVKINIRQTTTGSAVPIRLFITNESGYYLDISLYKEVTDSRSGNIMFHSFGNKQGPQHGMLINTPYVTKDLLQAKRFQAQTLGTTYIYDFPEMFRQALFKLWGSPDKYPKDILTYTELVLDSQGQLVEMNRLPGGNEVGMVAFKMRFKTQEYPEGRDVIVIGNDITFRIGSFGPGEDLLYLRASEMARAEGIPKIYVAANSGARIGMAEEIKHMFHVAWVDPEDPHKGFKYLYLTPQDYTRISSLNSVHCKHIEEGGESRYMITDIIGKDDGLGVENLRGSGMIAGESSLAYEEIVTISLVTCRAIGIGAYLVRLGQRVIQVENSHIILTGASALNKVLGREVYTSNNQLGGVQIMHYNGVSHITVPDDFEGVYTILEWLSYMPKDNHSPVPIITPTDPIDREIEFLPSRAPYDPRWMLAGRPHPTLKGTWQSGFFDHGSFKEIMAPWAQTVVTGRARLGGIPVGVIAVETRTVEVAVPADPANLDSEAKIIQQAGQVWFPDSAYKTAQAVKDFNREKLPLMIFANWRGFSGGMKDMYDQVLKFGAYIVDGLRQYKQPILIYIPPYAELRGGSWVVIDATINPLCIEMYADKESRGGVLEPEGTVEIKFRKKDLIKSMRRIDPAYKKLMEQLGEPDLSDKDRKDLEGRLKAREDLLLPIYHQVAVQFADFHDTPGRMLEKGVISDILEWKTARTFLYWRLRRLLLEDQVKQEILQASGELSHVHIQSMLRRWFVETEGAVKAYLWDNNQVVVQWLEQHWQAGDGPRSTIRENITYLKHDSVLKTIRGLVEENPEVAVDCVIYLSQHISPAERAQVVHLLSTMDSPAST
# procedure-text: ACC2 enzymatic assay (ADP-Glo)
# Format: biochemical
# condition-info: recombinant human ACC2 1 nM, 10 μM ATP, 10 μM acetyl CoA; Run 1-3; read-out: Compound IC50 (M) ACC2
parameter: IC50 (M)
Quick reminder: number only, in M, skip the unit.

Q. Entry under review: O=C(c1c2ccccc2cc2ccccc12)N1CCC(N2CCC[C@@H](C(=O)N3CCOCC3)C2)CC1 [CP 640186, reference compound] . Reported IC50?
A. 7.81e-08

* * *

# Test system: mouse primary hepatocytes
# procedure-text: 14C-acetate incorporation into total lipids in primary mouse hepatocytes
# Type: cell-based
# condition-info: Hepatocyte, 4-hour period, read-out: IC50 in μM, inhibition of 14C-acetate incorporation in total lipids
# Procedure: After perfusion, collagen digested liver cells were re-suspended in William's E media (11 mM glucose) (Gibco) supplemented with 10% fetal bovine serum (FBS) (Gibco), 2 mM L-glutamine (Gibco) and 1% Antibiotic-Antimycotic (Gibco) mixture and seeded in white opaque 96-well plates. […] After 2 h of shaking, ^14C incorporation into lipid was determined by liquid scintillation counting using a TopCount NXT Microplate Scintillation and Luminescence Counter (Perkin Elmer). […]
parameter: log10 IC50 (log10 of the value in µM)
The base-10 logarithm of IC50, taken with IC50 in µM, is what appears here.

Q. Entry under review: CC(C)(CCCc1ccc(CCCC(C)(C)C(=O)O)cc1)C(=O)O [III-1] . Reported log10 IC50?
A. 1.44

Q. Would you kindly repeat that for CC(C)(CCCCC(=O)CCCCC(C)(C)C(=O)O)C(=O)O [B] ?
A. 1.41

Q. Would you kindly repeat that for CC(C)(CCCCc1cccc(CCCCC(C)(C)C(=O)O)c1)C(=O)O [Compound I-32] ?
A. -0.47

Q. Would you kindly repeat that for CC(C)(CCCCCC(O)CCCCCC(C)(C)C(=O)O)C(=O)O [BA, Bempedoic acid] ?
A. -0.17

Q. Would you kindly repeat that for CC(C)(CCCCc1ccc(CCCCC(C)(C)C(=O)O)cc1)C(=O)O [Compound I-1] ?
A. -0.34

Q. Would you kindly repeat that for CC(C)(CCCCCCC(=O)CCCCCCC(C)(C)C(=O)O)C(=O)O [E] ?
A. -0.46

Q. Would you kindly repeat that for CC(C)(CO)CCCCCC(=O)CCCCCC(C)(C)CO [D] ?
A. 0.73

Q. Would you kindly repeat that for CC(C)(CCCCCC(=O)CCCCCC(C)(C)C(=O)O)C(=O)O [C] ?
A. -0.34

Q. Would you kindly repeat that for CC(C)(CO)CCCCC(=O)CCCCC(C)(C)CO [A] ?
A. 1.86

* * *

Give half-life for every item shown.
# procedure-text: Single and repeat dose plasma and tissue pharmacokinetics in male C57BL/6 mice
# Type: in vivo, mouse
# condition-info: male, C57BL/6; mouse liver, 20 mg/kg/day PO, repeat dose QD × 4
Quick reminder: number only, in h, skip the unit.

Q. Entry under review: CC(C)(CCCCc1ccc(CCCCC(C)(C)C(=O)O)cc1)C(=O)O . Reported half-life?
A. 20.4

Q. Would you kindly repeat that for CC(C)(CCCCc1cccc(CCCCC(C)(C)C(=O)O)c1)C(=O)O ?
A. 16
